test system: Ba/F3 Cytotoxicity; test: JAK2V617F kinase, IRF1 reporter and Ba/F3 cytotoxicity panel, late-stage follow-up, HEL and Ba/F3 cells (AID 2165)
Activity calls are given as the source filed them. No stated cut-off is given here; in the data, active means IC50 below about 9 µM; inactive means the rest.
// classify into active, inactive

Before answering, review these 4 worked examples.
[
  {
    "STRUCTURE": "COc1cc2ncnc(Nc3ccc(O)c(Br)c3)c2cc1OC",
    "ASSIGNED CLASS": "active"
  },
  {
    "STRUCTURE": "COCCOc1cc2ncnc(Nc3cccc(C#Cc4ccc(O)cc4)c3)c2cc1OCCOC",
    "ASSIGNED CLASS": "active"
  },
  {
    "STRUCTURE": "COc1ccccc1/C=C/C(=O)c1c2c(c(C)[nH]c1=O)CCCC2",
    "ASSIGNED CLASS": "active"
  },
  {
    "STRUCTURE": "COc1cc2ncnc(NC3CCCCC3)c2cc1OC",
    "ASSIGNED CLASS": "inactive"
  }
]

INPUT: Kindly provide the recorded test outcome for the following molecule: COc1cc(C=C(C#N)C(N)=O)cc(CSc2ccccc2)c1O
OUTPUT: inactive

INPUT: Try COCCOc1cc2nc[nH]c(=O)c2cc1OCCOC next.
OUTPUT: inactive

INPUT: Try O=C(C=Cc1ccccc1F)c1c(-c2ccccc2)c2ccccc2[nH]c1=O next.
OUTPUT: active

INPUT: Try Cc1cccc(NC(=O)COc2cccc(C)c2)c1 next.
OUTPUT: inactive

INPUT: Try Cc1ccc(O)c(NC(=O)COc2cccc(C)c2C)c1 next.
OUTPUT: inactive

INPUT: Try CCS(=O)(=O)c1ccc(O)c(NC(=O)COc2cccc(C)c2)c1 next.
OUTPUT: inactive

INPUT: Try Cc1ccc(O)c(NC(=O)COc2cccc3ccccc23)c1 next.
OUTPUT: active

INPUT: Try CCc1cccc(Nc2ncnc3cc(OCCOC)c(OCCOC)cc23)c1 next.
OUTPUT: inactive

* * *

system: Ba/F3 Cytotoxicity; assay: JAK2V617F kinase, IRF1 reporter and Ba/F3 cytotoxicity panel, late-stage follow-up, HEL and Ba/F3 cells (AID 2165)
Active and inactive are the calls of the source. No stated cut-off is given here; in the data, active means IC50 below about 9 µM; inactive means the rest.
// classify into yes (active), no (inactive)

Before answering, review these 2 worked examples.
[
  {
    "COMPOUND": "COc1cc2ncnc(Sc3ccc(Cl)cc3)c2cc1OC",
    "ASSIGNED CLASS": "no"
  },
  {
    "COMPOUND": "Cc1ccc(O)c(NC(=O)COc2ccc(I)cc2)c1",
    "ASSIGNED CLASS": "yes"
  }
]

INPUT: Kindly provide the recorded test outcome for the following compound: COc1cc2ncnc(Nc3cccc(Br)c3)c2cc1OC
OUTPUT: no

INPUT: Try Cc1cccc(OCC(=O)Nc2cc(C)c(C)cc2O)c1 next.
OUTPUT: no

INPUT: Try COc1cc2ncc(-c3ccccc3)nc2cc1OC next.
OUTPUT: no

INPUT: Try Cc1ccc(O)c(NC(=O)COc2ccc(F)cc2)c1 next.
OUTPUT: yes

INPUT: Try Cc1[nH]c(=O)c(C(=O)C=Cc2ccc(Cl)cc2Cl)c2c1CCCC2 next.
OUTPUT: yes

* * *

test system: Ba/F3 Cytotoxicity; test: JAK2V617F kinase, IRF1 reporter and Ba/F3 cytotoxicity panel, late-stage follow-up, HEL and Ba/F3 cells (AID 2165)
Activity calls are given as the source filed them. Rule as the data show it: active = IC50 below about 9 µM; inactive = the rest.
// classify into True (active), False (inactive)

Before answering, review these 4 worked examples.
[
  {
    "STRUCTURE": "Cc1ccc(O)c(NC(=O)COc2ccccc2Cl)c1",
    "ASSIGNED CLASS": "True"
  },
  {
    "STRUCTURE": "COc1cc2ncnc(Nc3ccc(OC(F)(F)F)cc3)c2cc1OC",
    "ASSIGNED CLASS": "False"
  },
  {
    "STRUCTURE": "CC(C)c1cc(C=C(C#N)C(=O)NCCCc2ccccc2)cc(C(C)C)c1O",
    "ASSIGNED CLASS": "True"
  },
  {
    "STRUCTURE": "Cc1ccc(O)c(NC(=O)COc2cc(C)c(Cl)c(C)c2)c1",
    "ASSIGNED CLASS": "True"
  }
]

INPUT: Kindly provide the recorded test outcome for the following compound: COc1ccc(OCC(=O)Nc2cc(C)ccc2O)cc1
OUTPUT: True

INPUT: Try Cc1ccc(O)c(NC(=O)COc2ccc(Cl)cc2)c1 next.
OUTPUT: True

INPUT: Try N#Cc1ccccc1NC(=O)COc1ccc2c(c1)OCO2 next.
OUTPUT: False

INPUT: Try COc1cc2ncnc(Nc3ccccc3)c2cc1OC next.
OUTPUT: False

INPUT: Try N#C/C(=C\c1ccc(O)c(O)c1)C(=O)NCCCCc1ccccc1 next.
OUTPUT: True

INPUT: Try COc1cc2ncnc(NC(C)C)c2cc1OC next.
OUTPUT: False

INPUT: Try Cc1[nH]c(=O)c(C(=O)C=Cc2ccc(I)cc2)c2c1CCCC2 next.
OUTPUT: False

INPUT: Try Cc1[nH]c(=O)c(C(=O)/C=C/c2ccccc2)c2c1CCCC2 next.
OUTPUT: True

* * *

test system: Ba/F3 Cytotoxicity; test: JAK2V617F kinase, IRF1 reporter and Ba/F3 cytotoxicity panel, late-stage follow-up, HEL and Ba/F3 cells (AID 2165)
Calls of active or inactive are those of the source. Rule as the data show it: active = IC50 below about 9 µM; inactive = the rest.
RECORDED METRIC: IC50

[
  {
    "MOLECULE": "Cc1cccc(OCC(=O)Nc2ccccc2F)c1",
    "VALUE": "> 40 µM (inactive)"
  },
  {
    "MOLECULE": "CCOc1cc2ncnc(Nc3cccc(Br)c3)c2cc1OCC",
    "VALUE": "3.16 µM (active)"
  },
  {
    "MOLECULE": "COc1ccccc1OCC(=O)Nc1cc(C)ccc1O",
    "VALUE": "0.018 µM (active)"
  }
]

INPUT: Name the reported IC50 value associated with the molecule Cc1[nH]c(=O)c(C(=O)C=Cc2ccccc2Cl)c2c1CCCC2
OUTPUT: 0.16 µM (active)

INPUT: Try Cc1cc(C)c(C(=O)/C=C/c2ccccc2F)c(=O)[nH]1 next.
OUTPUT: 0.69 µM (active)

INPUT: Try COc1cc(/C=C(\C#N)C(N)=O)cc(CSc2nc3ccccc3s2)c1O next.
OUTPUT: 7.61 µM (active)

INPUT: Try N#CC(=Cc1ccc(O)c(O)c1)C(=S)NCc1ccccc1 next.
OUTPUT: 1.09 µM (active)

INPUT: Try Cc1cc(C)cc(NC(=O)COc2cccc(C)c2)c1 next.
OUTPUT: > 40 µM (inactive)

* * *

test system: Ba/F3 Cytotoxicity; experiment: JAK2V617F kinase, IRF1 reporter and Ba/F3 cytotoxicity panel, late-stage follow-up, HEL and Ba/F3 cells (AID 2165)
Calls of active or inactive are those of the source. No stated cut-off is given here; in the data, active means IC50 below about 9 µM; inactive means the rest.
// classify into t (active), f (inactive)

Before answering, review these 5 worked examples.
[
  {
    "COMPOUND": "CCC(C)c1ccc(OCC(=O)Nc2cc(C)ccc2O)cc1 (stereo not given)",
    "ASSIGNED CLASS": "t"
  },
  {
    "COMPOUND": "c1ccc(Nc2ncnc3ccccc23)cc1",
    "ASSIGNED CLASS": "f"
  },
  {
    "COMPOUND": "COCCOc1cc2ncnc(Nc3cccc(C#Cc4ccc(-c5ccccc5)cc4)c3)c2cc1OCCOC",
    "ASSIGNED CLASS": "f"
  },
  {
    "COMPOUND": "COc1cc2ncnc(Nc3cccc(Cl)c3)c2cc1OC",
    "ASSIGNED CLASS": "f"
  },
  {
    "COMPOUND": "Cc1ccc(O)c(NC(=O)COc2ccc(C)c(C)c2)c1",
    "ASSIGNED CLASS": "t"
  }
]

INPUT: Kindly provide the recorded test outcome for the following compound: CCC(C)Nc1ncnc2cc(OC)c(OC)cc12 (stereo not given)
OUTPUT: f

INPUT: Try Cc1nnc(NC(=O)COc2ccccc2)s1 next.
OUTPUT: f

INPUT: Try Cc1[nH]c(=O)c(C(=O)C=Cc2ccc(Br)cc2)c2c1CCCC2 next.
OUTPUT: t

INPUT: Try Cc1ccc(O)c(NC(=O)COc2cc(C)ccc2C)c1 next.
OUTPUT: t

INPUT: Try Cc1cccc(OCC(=O)Nc2ccc(C)c(C)c2)c1 next.
OUTPUT: f
